Entries and their % T/C (Day)
# Test system: Human Epidermoid Tumors (A431)
# Assay type: in vivo, human tumor in BALB/c nu/nu female mice
# Assay Conditions: 50 mg/kg, PO, day 28
Structures can show the parent of a compound that is named as a salt.
Quick note: give the figure in %, leave out the unit.

The examples below pair each entry with its known result.
O=C(Nc1cc2c(cc1S(=O)(=O)O)-c1cc(S(=O)(=O)O)c(NC(=O)c3ccc4cc5ccccc5cc4c3)cc1S2(=O)=O)c1ccc2cc3ccccc3cc2c1 [Example 54, disodium salt] :: 38
COc1ccc(/C=C/C(=O)Nc2cc3c(cc2S(=O)(=O)O)-c2cc(S(=O)(=O)O)c(NC(=O)/C=C/c4ccc(OC)c(OC)c4Cl)cc2S3(=O)=O)c(Cl)c1OC [Example 27, disodium salt] :: 51
O=C(Nc1cc2c(cc1S(=O)(=O)O)-c1cc(S(=O)(=O)O)c(NC(=O)c3ccc4c(c3)C(=O)c3ccccc3C4=O)cc1S2(=O)=O)c1ccc2c(c1)C(=O)c1ccccc1C2=O [Example 55, disodium salt] :: 44

Input line: Give % T/C (Day) for the following compound: COc1ccc(/C=C/C(=O)Nc2cc3c(cc2S(=O)(=O)O)-c2cc(S(=O)(=O)O)c(NC(=O)/C=C/c4ccc(OC)cc4)cc2S3(=O)=O)cc1 [Example 30, disodium salt]
Output line: 58

* * *

# Tested on: VEGF 165-induced vascular permeability
# Measurement Protocol: Inhibition of Vascular Permeability Assay (Miles Assay)
# Type: in vivo, BALB/c female mice
# Assay Conditions: 100 mg/kg, PO, 4 hr prior to VEGF
Structures can show the parent of a compound that is named as a salt.
Entries and their % Control
Quick note: give the figure in %, leave out the unit.

COc1ccc(/C=C/C(=O)Nc2cc3c(cc2S(=O)(=O)O)-c2cc(S(=O)(=O)O)c(NC(=O)/C=C/c4ccc(OC)cc4)cc2S3(=O)=O)cc1 [Example 30, disodium salt] :: 56
O=Cc1ccc(/C=C/C(=O)Nc2cc3c(cc2S(=O)(=O)O)-c2cc(S(=O)(=O)O)c(NC(=O)/C=C/c4ccc(C=O)cc4)cc2S3(=O)=O)cc1 [Example 29, disodium salt] :: 81

Let us examine a further case.
Input line: Give % Control for the following compound: COc1ccc(/C=C/C(=O)Nc2cc3c(cc2S(=O)(=O)O)-c2cc(S(=O)(=O)O)c(NC(=O)/C=C/c4ccc(OC)c(OC)c4Cl)cc2S3(=O)=O)c(Cl)c1OC [Example 27, disodium salt]
Output line: 73

* * *

# Tested on: VEGF 165-induced vascular permeability
# Measurement Protocol: Inhibition of Vascular Permeability Assay (Miles Assay)
# Assay type: in vivo, BALB/c female mice
# Assay Conditions: 100 mg/kg, PO, 4 hr prior to VEGF
Structures can show the parent of a compound that is named as a salt.
Entries and their % Control
Quick note: give the figure in %, leave out the unit.

Input line: Give % Control for the following compound: COc1ccc2cc(C(=O)Nc3cc4c(cc3S(=O)(=O)O)-c3cc(S(=O)(=O)O)c(NC(=O)c5cc6ccc(OC)cc6oc5=O)cc3S4(=O)=O)c(=O)oc2c1 [Example 47, disodium salt]
Output line: 71

Input line: Give % Control for the following compound: O=C(Nc1cc2sc3cc(NC(=O)c4cc5ccccc5s4)c(C(=O)O)cc3c2cc1C(=O)O)c1cc2ccccc2s1 [Example 2, disodium salt]
Output line: 57

Input line: Give % Control for the following compound: O=C(Nc1cc2c(cc1S(=O)(=O)O)-c1cc(S(=O)(=O)O)c(NC(=O)c3cc4ccccc4o3)cc1S2(=O)=O)c1cc2ccccc2o1 [Example 42, disodium salt]
Output line: 69

Input line: Give % Control for the following compound: O=C(Nc1cc2c(cc1S(=O)(=O)O)-c1cc(S(=O)(=O)O)c(NC(=O)c3ccc4c(c3)C(=O)c3ccccc3C4=O)cc1S2(=O)=O)c1ccc2c(c1)C(=O)c1ccccc1C2=O [Example 55, disodium salt]
Output line: 74

Input line: Give % Control for the following compound: O=C(C=Cc1ccc(-c2ccccc2)cc1)Nc1cc2c(cc1S(=O)(=O)O)-c1cc(S(=O)(=O)O)c(NC(=O)C=Cc3ccc(-c4ccccc4)cc3)cc1S2(=O)=O [Example 24, disodium salt]
Output line: 49

* * *

# Test system: VEGF 165-induced vascular permeability
# Measurement Protocol: Inhibition of Vascular Permeability Assay (Miles Assay)
# Type: in vivo, BALB/c female mice
# Assay Conditions: 100 mg/kg, PO, 4 hr prior to VEGF
Counter-ions that a name gives are not always drawn.
Entries and their Lesion Area (measured area of vascular permeability)
Quick note: give the figure in mm^2, leave out the unit.

Input line: Give VEGF 165-induced vascular permeability Lesion Area (measured area of vascular permeability) for the following compound: O=C(Nc1cc2c(cc1S(=O)(=O)O)-c1cc(S(=O)(=O)O)c(NC(=O)c3cc4ccccc4o3)cc1S2(=O)=O)c1cc2ccccc2o1 [Example 42, disodium salt]
Output line: 31.1

* * *

# System: VEGF 165-induced vascular permeability
# Measurement Protocol: Inhibition of Vascular Permeability Assay (Miles Assay)
# Assay type: in vivo, BALB/c female mice
# Assay Conditions: 100 mg/kg, PO, 4 hr prior to VEGF
Structures can show the parent of a compound that is named as a salt.
Measured Attribute: Lesion Area (measured area of vascular permeability)
State the value with its unit after it.

COc1ccc2cc(C(=O)Nc3cc4c(cc3S(=O)(=O)O)-c3cc(S(=O)(=O)O)c(NC(=O)c5cc6ccc(OC)cc6oc5=O)cc3S4(=O)=O)c(=O)oc2c1 [Example 47, disodium salt] :: 32.8 mm^2
O=C(Nc1cc2c(cc1S(=O)(=O)O)-c1cc(S(=O)(=O)O)c(NC(=O)c3ccc4c(c3)C(=O)c3ccccc3C4=O)cc1S2(=O)=O)c1ccc2c(c1)C(=O)c1ccccc1C2=O [Example 55, disodium salt] :: 70.5 mm^2
O=Cc1ccc(/C=C/C(=O)Nc2cc3c(cc2S(=O)(=O)O)-c2cc(S(=O)(=O)O)c(NC(=O)/C=C/c4ccc(C=O)cc4)cc2S3(=O)=O)cc1 [Example 29, disodium salt] :: 76.5 mm^2

Let us examine a further case.
Input line: Give VEGF 165-induced vascular permeability Lesion Area (measured area of vascular permeability) for the following molecule: O=C(Nc1cc2sc3cc(NC(=O)c4cc5ccccc5s4)c(C(=O)O)cc3c2cc1C(=O)O)c1cc2ccccc2s1 [Example 2, disodium salt]
Output line: 34.0 mm^2
